Listed here: items and their measured CC50, cytotoxic concentration leading to 50% cell lysis.
system: HEK293T cells; assay: Cytotoxicity, MTT assay; format: cell-based, human; conditions: 24 h
Where no end group is shown, it is not given here.
Write the answer as a number in mM, unit excluded.

Example entries and their recorded answers appear below.
>>> data_value("WHFHVWIHCIAF [NE3]")
0.6554
>>> data_value("HWHAILIHFHFA [AT1]")
2.758
>>> data_value("HWHNKVLHWHIQ [AT3]")
0.2689

Moving on to another sequence below.
Summary for this sequence, FRLAAVLHFHIH [AT4] : CC50, cytotoxic concentration leading to 50% cell lysis is 3.015
